- assayName: qHTS RealTime-Glo MT Cell Viability Assay in HEK293 cells - 32 hour (AID 1224868); also: nearly all actives have a fitted effect of over 50% in size
- conditionNotes: RealTime-Glo luminescence; series mostly up to 76.8 µM
Records with an inconclusive call do not appear. Activity calls are given as the source filed them. Calls follow the shape of the dose curve; as a rule, active = well fitted cell-killing curve with a large enough effect in the repeat runs; inconclusive = weak or mixed curves, or effect the other way; inactive = flat fitted curve, though single readings scatter.
Would you mind answering with one of these outcomes? active, inactive

Tell me the recorded outcome of this test for CC(C(=O)O)c1ccc(C(=O)c2ccccc2)s1 (stereo not given) .
inactive

Tell me the recorded outcome of this test for `CN(C)C/C=C(/c1ccc(Br)cc1)c1cccnc1` .
inactive

Tell me the recorded outcome of this test for `Cc1occc1S` .
inactive

Tell me the recorded outcome of this test for `O=C(/C=C/c1ccc(O)c(O)c1)O[C@@H]1C[C@](O)(C(=O)O)C[C@@H](O)[C@H]1O` .
inactive

Tell me the recorded outcome of this test for `CC(C)(C)c1cc(O)c(C(C)(C)C)cc1O` .
active

Tell me the recorded outcome of this test for `CCCCOC(=O)/C=C\C(=O)OCCCC` .
inactive

Tell me the recorded outcome of this test for `C=CC(=O)OCCOC(=O)CCC(=O)O` .
inactive

Tell me the recorded outcome of this test for `Cc1cc(NC(=O)C(=O)O)cc(C)c1Oc1ccc(O)c2c1CCC2` .
inactive

Tell me the recorded outcome of this test for `CCCCCCc1ccc(N)cc1` .
inactive

Tell me the recorded outcome of this test for O=C(O)C1CCC(C(=O)O)CC1 (stereo not given) .
inactive

Tell me the recorded outcome of this test for `CCCCCCCCN(C)C` .
inactive

Tell me the recorded outcome of this test for `O=C(CC(=O)c1ccccc1)c1ccccc1` .
inactive

Tell me the recorded outcome of this test for `CNS(=O)(=O)Cc1ccc2[nH]cc(CCN(C)C)c2c1` .
inactive

Tell me the recorded outcome of this test for `N=C(N=C(N)N)N1CCOCC1` .
inactive

Tell me the recorded outcome of this test for `C=C(C)C(=O)OC(C)C` .
inactive

Tell me the recorded outcome of this test for `NC(=S)N/N=C/c1cccnc1` .
inactive

Tell me the recorded outcome of this test for `CCOc1ccc2[nH]cc(C(=O)NCc3ccccc3)c(=O)c2n1` .
inactive

Tell me the recorded outcome of this test for `C=C(C)C(=O)OCCN(C)C` .
inactive

Tell me the recorded outcome of this test for `CCCCCCCCCC(=O)OCC` .
inactive

Tell me the recorded outcome of this test for CC(C)CCCC(C)CCO (stereo not given) .
inactive

Tell me the recorded outcome of this test for `CN1CCC[C@@H]1c1cccnc1` .
inactive

Tell me the recorded outcome of this test for `O=C(O)COC(=O)Cc1ccccc1Nc1c(Cl)cccc1Cl` .
inactive

Tell me the recorded outcome of this test for `CCOc1cc(OCC)c(C(=O)CCC(=O)O)cc1OCC` .
inactive

Tell me the recorded outcome of this test for `CCOC(=S)SSC(=S)OCC` .
inactive

Tell me the recorded outcome of this test for `Cc1ccccc1N=Nc1ccc(N=Nc2c(O)ccc3ccccc23)c(C)c1` .
inactive

Tell me the recorded outcome of this test for `CCCCOc1cc(C(=O)OCCN(CC)CC)ccc1N` .
inactive

Tell me the recorded outcome of this test for `COC(=O)C(C)=O` .
inactive

Tell me the recorded outcome of this test for `N#CCCNCCC#N` .
inactive

Tell me the recorded outcome of this test for CCN(CC)CCNC(C(=O)OCCC(C)C)c1ccccc1 (stereo not given) .
inactive

Tell me the recorded outcome of this test for `CC(=O)NCCCS(=O)(=O)O` .
inactive

---

- assayName: qHTS assay to identify small molecule HDAC inhibitors (AID 1259364);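 also: wild-type HCT-116 cells with endogenous class I/II HDAC activity; nearly all actives have a fitted effect of over 45% in size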
- conditionNotes: HCT-116 HDAC-Glo I/II luminescence, 2 h; series mostly up to 92.4 µM
Results filed as inconclusive are left out. Activity calls are given as the source filed them. Calls follow the shape of the dose curve; as a rule, active = well fitted inhibition curve with a large enough effect in the repeat runs; inconclusive = weak or mixed curves; inactive = flat fitted curve, though single readings scatter.
Would you mind answering with one of these outcomes? active, inactive

Tell me the recorded outcome of this test for `CCCC[C@H]1CN(CC2CCOCC2)C(=O)OC12CCN(C1(C)CCN(C(=O)c3c(C)ncnc3C)CC1)CC2` .
inactive

Tell me the recorded outcome of this test for CC1CCc2cc(F)cc3c(=O)c(C(=O)O)cn1c23 (stereo unspecified) .
inactive

Tell me the recorded outcome of this test for `C1=Cc2ccccc2C1` .
inactive

Tell me the recorded outcome of this test for `CC(=O)c1c(C)c([N+](=O)[O-])c(C(C)(C)C)c([N+](=O)[O-])c1C` .
inactive

Tell me the recorded outcome of this test for `CC(=O)NCCCS(=O)(=O)O` .
inactive

Tell me the recorded outcome of this test for `CCCCCOC(=O)c1ccc(O)cc1` .
active

Tell me the recorded outcome of this test for `C[C@@H](C1=C(CCN(C)C)Cc2ccccc21)c1ccccn1` .
inactive

Tell me the recorded outcome of this test for `CCN(CC)C(C)=O` .
inactive

Tell me the recorded outcome of this test for `C=CCCCCCC` .
inactive

Tell me the recorded outcome of this test for `COCCOCCOCCOCCOC` .
inactive

Tell me the recorded outcome of this test for O=C=NC1CCC(CC2CCC(N=C=O)CC2)CC1 (stereo unspecified) .
inactive

Tell me the recorded outcome of this test for `C#CCOC(=O)[C@@H](C)Oc1ccc(Oc2ncc(Cl)cc2F)cc1` .
inactive

Tell me the recorded outcome of this test for `Cc1nc2ccccc2n1Cc1ccc(Cl)cc1` .
inactive

Tell me the recorded outcome of this test for `S=C(S)NCCNC(=S)S` .
inactive

Tell me the recorded outcome of this test for CC(C)(C)C1CCCCC1O (stereo unspecified) .
inactive

Tell me the recorded outcome of this test for `Cc1occc1S` .
inactive

Tell me the recorded outcome of this test for `CC(=O)O[C@H]1C[C@@H]2CC[C@@H]3[C@H](CC[C@@]4(C)[C@H]3C[C@H]([N+]3(C)CCCCC3)[C@@H]4OC(C)=O)[C@@]2(C)C[C@@H]1N1CCCCC1` .
inactive

Tell me the recorded outcome of this test for `CC(=O)c1ccc2c(c1)[C@H](NC(=O)c1ccc(F)cc1)[C@@H](O)C(C)(C)O2` .
inactive

Tell me the recorded outcome of this test for CCC(=O)OC(C)(C)C1CC=C(C)CC1 (stereo unspecified) .
inactive

Tell me the recorded outcome of this test for `Cc1ccc(C(C)c2ccc(C)c(C)c2)cc1C` .
inactive

Tell me the recorded outcome of this test for `CCOC(=O)[C@H](CCc1ccccc1)N[C@H]1CCc2ccccc2N(CC(=O)O)C1=O` .
inactive

Tell me the recorded outcome of this test for `Cc1cc(NC(=O)C(=O)O)cc(C)c1Oc1ccc(O)c2c1CCC2` .
inactive

Tell me the recorded outcome of this test for `Nc1cnn([C@@H]2O[C@H](CO)[C@@H](O)[C@H]2O)c(=O)n1` .
inactive

Tell me the recorded outcome of this test for `COc1ccc([C@@H]2Sc3ccccc3N(CCN(C)C)C(=O)[C@@H]2OC(C)=O)cc1` .
inactive

Tell me the recorded outcome of this test for `O=c1[nH]cnc2ccccc12` .
inactive

Tell me the recorded outcome of this test for `CN1CCC(OC(c2ccccc2)c2ccccc2)CC1` .
inactive

---

- assayName: qHTS assay to identify small molecule antagonists of the sonic hedgehog signaling (Shh) pathway (AID 1259369); also: nearly all actives have a fitted effect of over 45% in size
- conditionNotes: NIH/3T3 Gli1-Luc reporter, Shh antagonist, luminescence 24 h; series mostly up to 92.4 µM
Results filed as inconclusive are left out. Calls of active or inactive are those of the source. The call rests on the fitted dose curve.
Would you mind answering with one of these outcomes? 1 for active, -1 for inactive

Tell me the recorded outcome of this test for `O=C(Cl)c1c(Cl)cccc1Cl` .
-1

Tell me the recorded outcome of this test for `CCCCCCCCCO` .
-1

Tell me the recorded outcome of this test for `Oc1ccc(Sc2ccc(O)cc2)cc1` .
1

Tell me the recorded outcome of this test for Oc1ccc(C(O)CNCCCCCCNCC(O)c2ccc(O)c(O)c2)cc1O (stereo not given) .
-1

Tell me the recorded outcome of this test for `Cc1occc1S` .
-1

Tell me the recorded outcome of this test for `Nc1ccc(C(=O)N2CC3CC(CN(Cc4ccccc4)C3)C2)cc1` .
-1

Tell me the recorded outcome of this test for `Cc1ncsc1CCO` .
-1

Tell me the recorded outcome of this test for `CNS(=O)(=O)Cc1ccc2[nH]cc(CCN(C)C)c2c1` .
-1

Tell me the recorded outcome of this test for `CN(C)CC[C@@H](c1ccc(Br)cc1)c1ccccn1` .
-1

Tell me the recorded outcome of this test for CCCCC(CC)COCCCN (stereo not given) .
-1

Tell me the recorded outcome of this test for `N#Cc1c(F)cccc1F` .
-1

Tell me the recorded outcome of this test for `O=S1(=O)N=C(O)c2ccccc21` .
-1

Tell me the recorded outcome of this test for `N#CCCNCCC#N` .
-1

Tell me the recorded outcome of this test for `Nc1nc(CC(=O)O)cs1` .
-1

Tell me the recorded outcome of this test for `Cc1cc(C)c(S(=O)(=O)O)cc1N=Nc1cc(S(=O)(=O)O)c2ccccc2c1O` .
-1

Tell me the recorded outcome of this test for `Cc1ccc(C)o1` .
-1

Tell me the recorded outcome of this test for CC(C(=O)O)c1ccc(-c2ccccc2)c(F)c1 (stereo not given) .
-1

Tell me the recorded outcome of this test for COc1ccc2[nH]c(S(=O)Cc3ncc(C)c(OC)c3C)nc2n1 (stereo not given) .
-1

Tell me the recorded outcome of this test for `CCCCCCCCCCCCC(=O)O` .
1

Tell me the recorded outcome of this test for `C=C(C)C(=O)OCCOc1ccccc1` .
1

Tell me the recorded outcome of this test for OCC1CC2CC1C1CCC(CO)C21 (stereo not given) .
-1

Tell me the recorded outcome of this test for `O=C1Nc2cc(Cl)ccc2Oc2ccccc21` .
-1

Tell me the recorded outcome of this test for `CN(c1nccc(=O)[nH]1)C1CCN(c2nc3ccccc3n2Cc2ccc(F)cc2)CC1` .
-1

Tell me the recorded outcome of this test for `CC[C@H](C)[C@H](N)C(=O)O` .
-1

Tell me the recorded outcome of this test for CCCCCC(CO)CCC (stereo not given) .
-1

Tell me the recorded outcome of this test for `CCOC(=S)SSC(=S)OCC` .
-1

Tell me the recorded outcome of this test for `CC(C)(Oc1ccc(Cl)cc1)C(=O)OCCCOC(=O)C(C)(C)Oc1ccc(Cl)cc1` .
-1

Tell me the recorded outcome of this test for `CC(=O)OCCc1ccccc1` .
-1

Tell me the recorded outcome of this test for `CC(=O)OC/C=C/c1ccccc1` .
-1

Tell me the recorded outcome of this test for `O=C(/C=C/c1ccc(O)c(O)c1)O[C@@H]1C[C@](O)(C(=O)O)C[C@@H](O)[C@H]1O` .
-1
